assay: Microsomal stability assay, human liver microsomes; format: in vitro ADME; conditions: 10 μM
measure: Mics (hu) comp remaining 60 min (%)
Output spec: scalar in %, unitless text.

- O=P(O)(O)CP(=O)(O)OC[C@H]1O[C@@H](n2ccc3c(-c4ccc5cncnc5c4)ncnc32)[C@H](O)[C@@H]1O: 92
- O=P(O)(O)CP(=O)(O)OC[C@H]1O[C@@H](n2ccc3c(-c4cccc5ccccc45)ncnc32)[C@@H](F)[C@@H]1O [34A.6]: 97
- O=P(O)(O)CP(=O)(O)OC[C@H]1O[C@@H](n2ccc3c(-c4cccc5c4CCCC5)ncnc32)[C@H](O)[C@@H]1O: 96
- Cc1nc(-c2ccc3ccccc3c2)c2ccn([C@@H]3O[C@H](COP(=O)(O)CP(=O)(O)O)[C@@H](O)[C@H]3O)c2n1 [18E.7]: 86

Problem: Reported Mics (hu) comp remaining 60 min for O=P(O)(O)CP(=O)(O)OC[C@H]1O[C@@H](n2ccc3c(-c4cccc5ccccc45)nc(Cl)nc32)[C@H](O)[C@@H]1O : what is it?
Result: 96

Problem: Reported Mics (hu) comp remaining 60 min for COc1ccc2cc(-c3nc(Cl)nc4c3ccn4[C@@H]3O[C@H](COP(=O)(O)CP(=O)(O)O)[C@@H](O)[C@H]3O)ccc2c1 : what is it?
Result: 106

Problem: Reported Mics (hu) comp remaining 60 min for O=P(O)(O)CP(=O)(O)OC[C@H]1O[C@@H](n2ccc3c(-c4cc(Br)c5ccccc5c4F)nc(Cl)nc32)[C@H](O)[C@@H]1O : what is it?
Result: 117

Problem: Reported Mics (hu) comp remaining 60 min for Nc1nc(-c2ccco2)c2ccn([C@@H]3O[C@H](COP(=O)(O)CP(=O)(O)O)[C@@H](O)[C@H]3O)c2n1 [11C.1] : what is it?
Result: 107

Problem: Reported Mics (hu) comp remaining 60 min for C[C@H](Nc1cc(Cl)nc2c1cnn2[C@@H]1O[C@H](COP(=O)(O)CP(=O)(O)O)[C@@H](O)[C@H]1O)c1ccccc1F [AB680, quemliclustat, reference compound] : what is it?
Result: 118

Problem: Reported Mics (hu) comp remaining 60 min for O=P(O)(O)CP(=O)(O)OC[C@H]1O[C@@H](n2cnc3c(-c4cccc5c4CCCC5)ncnc32)[C@H](O)[C@@H]1O [31A.12] : what is it?
Result: 102

Problem: Reported Mics (hu) comp remaining 60 min for O=P(O)(O)CP(=O)(O)OC[C@H]1O[C@@H](n2ccc3c(-c4ccc5cc(F)ccc5c4)nc(Cl)nc32)[C@H](O)[C@@H]1O : what is it?
Result: 108

Problem: Reported Mics (hu) comp remaining 60 min for O=P(O)(O)CP(=O)(O)OC[C@H]1O[C@@H](n2ccc3c(-c4ccc5ccccc5c4)ncnc32)[C@@H](F)[C@@H]1O [34A.7] : what is it?
Result: 94

Problem: Reported Mics (hu) comp remaining 60 min for O=P(O)(O)CP(=O)(O)OC[C@H]1O[C@@H](n2ccc3c(-c4cc5ccccc5o4)nc(F)nc32)[C@H](O)[C@@H]1O [14D.8] : what is it?
Result: 107

Problem: Reported Mics (hu) comp remaining 60 min for O=P(O)(O)CP(=O)(O)OC[C@H]1O[C@@H](n2ccc3c(-c4ccc(F)c5ccccc45)ncnc32)[C@@H](F)[C@@H]1O [34A.23] : what is it?
Result: 98

Problem: Reported Mics (hu) comp remaining 60 min for Cc1nc(-c2cccc3c2CCCC3)c2ccn([C@@H]3O[C@H](COP(=O)(O)CP(=O)(O)O)[C@@H](O)[C@H]3O)c2n1 [18E.12] : what is it?
Result: 108

Problem: Reported Mics (hu) comp remaining 60 min for CNc1nc(-c2ccc3ccccc3c2)c2ccn([C@@H]3O[C@H](COP(=O)(O)CP(=O)(O)O)[C@@H](O)[C@H]3O)c2n1 [22G.7] : what is it?
Result: 106

Problem: Reported Mics (hu) comp remaining 60 min for O=P(O)(O)CP(=O)(O)OC[C@H]1O[C@@H](n2ccc3c(-c4ccc5c(c4)CCCC5)ncnc32)[C@@H](F)[C@@H]1O [34A.17] : what is it?
Result: 90

Problem: Reported Mics (hu) comp remaining 60 min for O=P(O)(O)CP(=O)(O)OC[C@H]1O[C@@H](n2ccc3c(-c4ccc5c(c4)CCCC5)nc(Cl)nc32)[C@H](O)[C@@H]1O : what is it?
Result: 124

Problem: Reported Mics (hu) comp remaining 60 min for O=P(O)(O)CP(=O)(O)OC[C@H]1O[C@@H](n2cnc3c(-c4cccc5ccccc45)ncnc32)[C@H](O)[C@@H]1O [31A.6] : what is it?
Result: 121

Problem: Reported Mics (hu) comp remaining 60 min for O=P(O)(O)CP(=O)(O)OC[C@H]1O[C@@H](n2ccc3c(-c4ccc5ccccc5c4)nc(F)nc32)[C@H](O)[C@@H]1O [14D.7] : what is it?
Result: 112
